Ref: ChEMBL document CHEMBL3864137

assay: AUClast in Sprague-Dawley rat at 1 mg/kg, iv; assay type: ADME, organism-based; design: dose 1 mg/kg, time 0 - last, route intravenous; details: in vivo
endpoint.label: AUC(0-t) (ng·h/mL)

INSERT INTO assay_data (line_notation, value) VALUES
  ('Cc1ccc2c(n1)[C@H]([C@@H](C)C(=O)Nc1ccc(Cl)c(-c3nc4ccccc4n3C)c1)CC[C@H]2C', 1780);

---

target: Voltage-gated inwardly rectifying potassium channel KCNH2 (Homo sapiens, UniProt Q12809)
Sequence (Q12809 whole entry): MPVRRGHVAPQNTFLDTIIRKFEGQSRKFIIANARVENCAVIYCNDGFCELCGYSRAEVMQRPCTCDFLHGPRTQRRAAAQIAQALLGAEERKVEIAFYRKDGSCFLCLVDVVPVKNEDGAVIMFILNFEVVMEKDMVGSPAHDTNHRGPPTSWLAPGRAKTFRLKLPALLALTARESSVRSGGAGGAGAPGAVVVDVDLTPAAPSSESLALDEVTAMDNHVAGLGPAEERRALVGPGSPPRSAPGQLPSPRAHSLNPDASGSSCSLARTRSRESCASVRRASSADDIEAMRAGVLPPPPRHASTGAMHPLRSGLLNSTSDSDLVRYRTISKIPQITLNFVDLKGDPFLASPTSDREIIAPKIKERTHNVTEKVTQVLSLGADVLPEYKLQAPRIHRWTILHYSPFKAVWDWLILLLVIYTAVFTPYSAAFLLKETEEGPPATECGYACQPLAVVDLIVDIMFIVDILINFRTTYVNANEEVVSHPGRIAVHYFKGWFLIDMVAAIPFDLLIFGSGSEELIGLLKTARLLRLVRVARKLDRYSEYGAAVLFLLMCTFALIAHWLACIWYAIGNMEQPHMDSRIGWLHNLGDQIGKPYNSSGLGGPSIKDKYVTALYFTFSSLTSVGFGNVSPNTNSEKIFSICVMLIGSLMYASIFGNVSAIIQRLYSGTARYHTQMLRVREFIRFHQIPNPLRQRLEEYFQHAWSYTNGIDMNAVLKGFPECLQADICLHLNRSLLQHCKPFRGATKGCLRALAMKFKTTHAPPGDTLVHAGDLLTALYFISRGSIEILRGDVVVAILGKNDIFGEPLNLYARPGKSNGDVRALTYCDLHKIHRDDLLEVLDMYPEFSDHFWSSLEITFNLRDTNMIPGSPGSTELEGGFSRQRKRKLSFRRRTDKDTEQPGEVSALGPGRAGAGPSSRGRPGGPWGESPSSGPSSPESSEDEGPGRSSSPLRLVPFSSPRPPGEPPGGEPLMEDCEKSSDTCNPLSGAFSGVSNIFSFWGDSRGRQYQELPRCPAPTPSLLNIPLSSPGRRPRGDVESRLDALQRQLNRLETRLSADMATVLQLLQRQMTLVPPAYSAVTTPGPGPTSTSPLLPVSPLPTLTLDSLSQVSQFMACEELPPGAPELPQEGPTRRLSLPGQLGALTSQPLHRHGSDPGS
endpoint.label: IC50

INSERT INTO assay_data (line_notation, endpoint_label, value) VALUES
  ('C[C@H]1[C@@H](CC(=O)Nc2ccc(Cl)c(-c3ccccn3)c2)O[C@@H]2O[C@@]3(C)CC[C@H]4[C@H](C)CC[C@@H]1[C@@]24OO3', 'IC50', '> 15 µM'),
  ('Cc1ccc2c(n1)[C@H]([C@@H](C)C(=O)Nc1ccc(Cl)c(-c3nc4ccccc4n3C)c1)CC[C@H]2C', 'IC50', '> 15 µM'),
  ('C[C@@H]1CC[C@@H]([C@@H](C)C(=O)Nc2ccc(Cl)c(-c3ccccn3)c2)c2nc(CN3CCOCC3)ccc21', 'IC50', '3.31 µM'),
  ('Cc1ccc2c(n1)[C@H]([C@@H](C)C(=O)Nc1ccc(Cl)c(-c3ccccn3)c1)CC[C@H]2C', 'IC50', '> 15 µM');

---

// reported IC50 per item
target: Protein smoothened (Mus musculus); test: Inhibition of Smo-mediated Hh signalling pathway in mouse Shh Light2 cells by Gli-luciferase reporter gene assay
Sequence (P56726 whole entry): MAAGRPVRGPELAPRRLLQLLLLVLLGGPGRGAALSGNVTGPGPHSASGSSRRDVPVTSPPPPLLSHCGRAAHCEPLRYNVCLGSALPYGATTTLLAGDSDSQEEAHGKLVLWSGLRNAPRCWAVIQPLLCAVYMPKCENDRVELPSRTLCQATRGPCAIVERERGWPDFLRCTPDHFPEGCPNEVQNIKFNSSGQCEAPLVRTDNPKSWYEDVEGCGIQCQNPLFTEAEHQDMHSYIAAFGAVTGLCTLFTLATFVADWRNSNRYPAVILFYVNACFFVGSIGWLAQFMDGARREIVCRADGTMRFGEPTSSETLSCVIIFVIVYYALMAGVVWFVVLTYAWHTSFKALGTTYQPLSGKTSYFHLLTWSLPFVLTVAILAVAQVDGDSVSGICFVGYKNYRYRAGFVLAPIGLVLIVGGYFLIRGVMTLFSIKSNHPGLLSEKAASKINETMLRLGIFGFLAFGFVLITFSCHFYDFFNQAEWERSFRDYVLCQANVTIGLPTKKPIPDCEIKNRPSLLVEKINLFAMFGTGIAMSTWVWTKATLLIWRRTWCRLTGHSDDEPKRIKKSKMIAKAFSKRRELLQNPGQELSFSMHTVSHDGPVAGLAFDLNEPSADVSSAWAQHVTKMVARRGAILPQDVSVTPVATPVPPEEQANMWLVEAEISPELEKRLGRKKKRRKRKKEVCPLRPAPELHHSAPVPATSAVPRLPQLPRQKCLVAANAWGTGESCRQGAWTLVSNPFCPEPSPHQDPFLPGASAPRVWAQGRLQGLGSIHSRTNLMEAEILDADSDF
endpoint.label: IC50 (nM)

INSERT INTO results (molecule, prefix_operator, value) VALUES
  ('Cc1ccc2c(n1)[C@H]([C@@H](C)C(=O)Nc1ccc(Cl)c(-c3nc(C4CC4)no3)c1)CC[C@H]2C', '=', 220),
  ('C[C@@H]1CC[C@@H]([C@@H](C)C(=O)Nc2ccc(Cl)c(-c3ccccn3)c2)[C@H]2CC(O)CC[C@H]21 (stereo partly drawn)', '>', 1000),
  ('C[C@@H]1CC[C@@H]([C@@H](C)C(=O)Nc2ccc(Cl)c(-c3ccccn3)c2)[C@H]2CC(=O)C=C[C@H]21', '>', 1000),
  ('C[C@@H]1CC[C@@H]([C@@H](C)C(=O)Nc2ccc(Cl)c(-c3ccccn3)c2)[C@H]2Cc3c(cnn3-c3ccccc3)C[C@H]21', '=', 327),
  ('Cc1ccc2c(n1)[C@H]([C@@H](C)C(=O)Nc1ccc(Cl)c(-c3noc(C)n3)c1)CC[C@H]2C', '>', 1000),
  ('Cc1ccc2c(n1)[C@H]([C@@H](C)C(=O)Nc1ccc(Cl)c(-c3nnc(-c4ccnn4C)s3)c1)CC[C@H]2C', '=', 265),
  ('C[C@@H]1CC[C@@H]([C@@H](C)C(=O)Nc2ccc(Cl)c(-c3ccccn3)c2)C2=CC(=O)CC[C@H]21', '>', 1000),
  ('Cc1ccc2c(n1)[C@H]([C@@H](C)C(=O)Nc1cccc(-c3ccc(OC(F)(F)F)cc3)c1C)CC[C@H]2C', '=', 1000);

---

assay: MRT (0 to infinity) in Sprague-Dawley rat at 1 mg/kg, iv; format: ADME, organism-based; conditions: in vivo
endpoint.label: MRT inf (h)

INSERT INTO measurements (line_notation, endpoint_label, unit_info, value) VALUES
  ('Cc1ccc2c(n1)[C@H]([C@@H](C)C(=O)Nc1ccc(Cl)c(-c3nc4ccccc4n3C)c1)CC[C@H]2C', 'MRT inf', 'h', 3.97);
